test name: folding enthalpy; higher = less favourable; fluorescence melt of hairpins on a sequencing array, two-state fit
condition details: sodium 0.088 M
So I've got a bunch of sequences here, and I need their folding enthalpy values.
Respond numerically; units are kcal/mol and should not be typed.

Param item = GGAACCGAAAGGTACTCC ((((((....)))..))) ; retrieve measured folding enthalpy.
-12.6

Param item = GTATTTCGAAAGAATTAC (((.(((....))).))) ; retrieve measured folding enthalpy.
-28.3

Param item = GCACTGCGAAAGCACCGC ((..(((....)))..)) ; retrieve measured folding enthalpy.
-9.03

Param item = GATCCAGGGGTGGATC ((((((....)))))) ; retrieve measured folding enthalpy.
-28.1

Param item = GTGAGCGGAAACGTTCAC ((((.((....)).)))) ; retrieve measured folding enthalpy.
-41.2

Param item = GCGGTGGACCGC ((((....)))) ; retrieve measured folding enthalpy.
-26.6

Param item = GCCGTAGGAAACTGTGGC (((..((....))..))) ; retrieve measured folding enthalpy.
-11.4

Param item = GCGGTGCGAAAGCTCTGC ((.(.((....)).).)) ; retrieve measured folding enthalpy.
-20.2

Param item = GCCGCAGGAAACCGCGGC (((((.(....).))))) ; retrieve measured folding enthalpy.
-32.1

Param item = GACTTACGAAAGTATGTC (((.(((....))).))) ; retrieve measured folding enthalpy.
-32.9

Param item = GCGACGCGAAAGCTTGGC ((.(.((....)).).)) ; retrieve measured folding enthalpy.
-10.3

Param item = GCTCATGGAAACACGAGC ((((.((....)).)))) ; retrieve measured folding enthalpy.
-38.1

* * *

test name: melting temperature; fluorescence melt of hairpins on a sequencing array, two-state fit, raised by 9.35 °C to match UV melts
condition details: sodium 0.088 M
So I've got a bunch of sequences here, and I need their Tm values.
Respond numerically; units are °C and should not be typed.

Param item = GAGAACGAAAGTTGGCTC ((((((....)))..))) ; retrieve measured Tm.
30.6

Param item = GATCTTGGGTAAGATC ((((((....)))))) ; retrieve measured Tm.
43.2

Param item = GCATGCGAAAGCACTTGC ((((((....)))..))) ; retrieve measured Tm.
37.7

Param item = GCCTGCCCGAAAGGGGGC (((..(((....)))))) ; retrieve measured Tm.
58.1

Param item = AGTACGAAAGTACT (((((....))))) ; retrieve measured Tm.
54.1

Param item = GACGGAGGAAACCCCGTC (((((.(....).))))) ; retrieve measured Tm.
51.3

Param item = GATCAGTAAGCTGATC ((((((....)))))) ; retrieve measured Tm.
52.3

Param item = GACGACGAAAGTCTCGTC ((((((....)))..))) ; retrieve measured Tm.
46.9

Param item = GGAAAACGAAAGTTATCC (((.(((....))).))) ; retrieve measured Tm.
37

Param item = GCGAAGGAAACTTCGC ((((((....)))))) ; retrieve measured Tm.
63.7

Param item = GACCGGGGAAACCCAGTC (((.(((....))).))) ; retrieve measured Tm.
42.8

Param item = GACACTACGAAAGTAGTC (((..(((....)))))) ; retrieve measured Tm.
32.4

Param item = GCTCAGGGAAACTTGAGC (((((.(....).))))) ; retrieve measured Tm.
48.7
